tested on: U251 CNS; experiment: NCI tumour cell line growth inhibition, 48 h
Can you tell me TGI for the items I'm about to list?

Challenge: Provide TGI, tested on U251 CNS, for "CCCSc1ccc2[nH]c(N3C(=O)/C(=C/c4cc(OC)c(OC)c(OC)c4)N=C3c3ccccc3)cc2c1" .
Response given: > 37.5 µM

Challenge: Provide TGI, tested on U251 CNS, for "COc1ccc([C@]23CCN(S(=O)(=O)c4ccc(C)cc4)[C@H]2[C@H](CO)C2(CC3)OCC(C)(C)CO2)cc1OC" .
Response given: > 100 µM

Challenge: Provide TGI, tested on U251 CNS, for "CC(=O)Oc1cc(C)c(OC(C)=O)c2c1[C@H]1CC[C@]3(C)[C@@H](OC(C)=O)CC[C@H]3[C@@H]1CC2" .
Response given: 29.4 µM

Challenge: Provide TGI, tested on U251 CNS, for "CC(C)(Oc1ccc2c(=O)cc(-c3ccccc3)oc2c1)C(=O)Nc1c(Cl)cccc1Cl" .
Response given: > 100 µM

###

tested on: DU-145 prostate; assay: NCI tumour cell line growth inhibition, 48 h
Can you tell me TGI for the items I'm about to list?

Challenge: Respond only with TGI recorded for O=C(O)C(O)C(O)C(O)C(=O)CO (stereo unspecified)
Response given: > 100 µM

Challenge: Respond only with TGI recorded for "O=C(NNS(=O)(=O)c1ccc(F)cc1)c1cccnc1Nc1ccc(Cl)cc1Cl"
Response given: 55.4 µM

Challenge: Respond only with TGI recorded for COc1ccc(CC(NC(=O)[C@H](C)NC(=O)CN2CCOCC2)C(=O)N[C@@H](Cc2ccccc2)C(=O)[C@@]2(C)CO2)cc1 (stereo partly specified)
Response given: 5.71 µM

Challenge: Respond only with TGI recorded for C[C@]12C3CC[C@@]4(CO)C[C@]3(CCC1[C@](C)(C(=O)O)CC[C@@H]2O)CC4=O (stereo partly specified)
Response given: > 100 µM

Challenge: Respond only with TGI recorded for "Cc1cc(C)n(C(=O)c2nn(-c3ccc(Cl)cc3)cc2O)n1"
Response given: > 100 µM

Challenge: Respond only with TGI recorded for O=C1CCCCCC1CC(Sc1ccccc1)Sc1ccccc1 (stereo unspecified)
Response given: > 100 µM

Challenge: Respond only with TGI recorded for "O=C(Cn1c2ccc(Br)cc2c2nc3ccccc3nc21)N/N=C/c1ccccc1"
Response given: > 100 µM

Challenge: Respond only with TGI recorded for "O=C(Nc1ccccc1O)c1ccc(CNC(=O)c2sccc2Nc2ccnc(C(F)(F)F)c2)cc1"
Response given: 21 µM

Challenge: Respond only with TGI recorded for "COc1cc(NCc2ccccc2O)c2ncccc2c1"
Response given: > 100 µM

Challenge: Respond only with TGI recorded for "C[C@@H](Oc1ccc2[nH]nc(/C=C/c3cnn(CCO)c3)c2c1)c1c(Cl)cncc1Cl"
Response given: > 43.6 µM

Challenge: Respond only with TGI recorded for "Cc1cccc2c1O/C(=C\c1ccc([N+](=O)[O-])o1)C2=O"
Response given: 2.12 µM

Challenge: Respond only with TGI recorded for O=S(=O)(NC1OCCCC1I)c1ccccc1 (stereo unspecified)
Response given: > 100 µM

Challenge: Respond only with TGI recorded for "COc1cc(/C=C2\CN(S(=O)(=O)c3ccccc3)C/C(=C\c3cc(CN4CCCCC4)c(O)c(OC)c3)C2=O)cc(CN2CCCCC2)c1O"
Response given: 3.19 µM

Challenge: Respond only with TGI recorded for "Cc1nc2cc(Nc3nc(Nc4ccc(F)cc4)nc(N4CCN(C)CC4)n3)ccc2n1Cc1ccccc1"
Response given: 3.37 µM

Challenge: Respond only with TGI recorded for COc1cc(C2=NN(c3ccc(S(N)(=O)=O)cc3)C(c3ccc(Cl)cc3)C2)cc(OC)c1OC (stereo unspecified)
Response given: > 100 µM

Challenge: Respond only with TGI recorded for "COC(=O)c1nc(-c2nc(CCNC(=O)OC(C)(C)C)sc2Cl)sc1Cl"
Response given: > 100 µM

Challenge: Respond only with TGI recorded for "CCO/C(O)=C(/C(=N)N1CCCC1)C(=O)Nc1ccc(F)cc1"
Response given: > 100 µM

Challenge: Respond only with TGI recorded for "COc1cc2ccc1OCc1cccc(n1)COc1ccc(cc1OC)C=Nc1ccc(cc1)-c1ccc(cc1)N=C2"
Response given: > 100 µM

Challenge: Respond only with TGI recorded for "CCOc1ccc2ccc3cccnc3c2n1"
Response given: > 100 µM

Challenge: Respond only with TGI recorded for "C/C(N=Nc1nc2ccccc2[nH]1)=C1/C=CC=CN1O"
Response given: > 100 µM

Challenge: Respond only with TGI recorded for CSCCC(NC(=O)OCc1ccccc1)P(=O)(O)c1ccccc1 (stereo unspecified)
Response given: > 100 µM

###

system: HL-60(TB) leukemia; assay: NCI tumour cell line growth inhibition, 48 h; in the data active = GI50 below about 0.43 µM; inactive = the rest
Outcome field: choose from active, inactive

Challenge: What was the test verdict on "CO[C@@]12C[C@H]3[C@@H]([C@@H](O)[C@@H](OC(=O)/C=C/c4ccccc4)[C@@]4(O)C(C)(C)CCC[C@]34C)[C@@H](C)C1=CC(=O)O2" ?
Response given: inactive

Challenge: What was the test verdict on "C[C@@H](Oc1ccc2[nH]nc(/C=C/c3cnn(CCO)c3)c2c1)c1c(Cl)cncc1Cl" ?
Response given: active

Challenge: What was the test verdict on "COc1cc(NCc2ccccc2O)c2ncccc2c1" ?
Response given: inactive

Challenge: What was the test verdict on "O=C(NNS(=O)(=O)c1ccc(F)cc1)c1cccnc1Nc1ccc(Cl)cc1Cl" ?
Response given: inactive

Challenge: What was the test verdict on C1=C(c2ccccc2)C(c2ccc(OCCN3CCCCC3)cc2)Oc2ccccc21 (stereo not given) ?
Response given: inactive

###

test system: NCI-H522 lung; test: NCI tumour cell line growth inhibition, 48 h
value type: GI50

Challenge: Respond only with GI50 recorded for "COc1cc(NCc2ccccc2O)c2ncccc2c1"
Response given: 10.1 µM

Challenge: Respond only with GI50 recorded for "C/C1=C/C(=O)O[C@@H]2C[C@@H](CC[C@H](C)/C=C\C=C\CC1)O[C@@](OCCc1ccccc1)([C@@H]1CSC(=O)N1)C2"
Response given: 0.0581 µM

Challenge: Respond only with GI50 recorded for "OCC#Cc1ccccc1C#Cc1ccc(C#Cc2ccccc2C#CCO)s1"
Response given: 11.7 µM

Challenge: Respond only with GI50 recorded for "Cc1cc(C)n(C(=O)c2nn(-c3ccc(Cl)cc3)cc2O)n1"
Response given: 7.37 µM

Challenge: Respond only with GI50 recorded for "O=[N+]([O-])[O-].O=[N+]([O-])[O-].[Au].[Au].c1ccc([P-]c2ccccc2)cc1.c1ccc([P-]c2ccccc2)cc1"
Response given: 3.64 µM

Challenge: Respond only with GI50 recorded for C[C@]12C3CC[C@@]4(CO)C[C@]3(CCC1[C@](C)(C(=O)O)CC[C@@H]2O)CC4=O (stereo partly specified)
Response given: > 100 µM

Challenge: Respond only with GI50 recorded for "COc1ccc(-c2nnc(N3CCN(C(=O)CN4CCN(c5ccc(Cl)cc5)CC4)CC3)nc2-c2ccc(OC)cc2)cc1"
Response given: 22.4 µM

Challenge: Respond only with GI50 recorded for "COc1ccc(/C=C/C(=O)c2cc3c(N)c(C(=O)Nc4ccccc4C)sc3nc2C)cc1"
Response given: 0.194 µM

Challenge: Respond only with GI50 recorded for "CO[C@@]12C[C@H]3[C@@H]([C@@H](O)[C@@H](OC(=O)/C=C/c4ccccc4)[C@@]4(O)C(C)(C)CCC[C@]34C)[C@@H](C)C1=CC(=O)O2"
Response given: 35.1 µM

Challenge: Respond only with GI50 recorded for CCCCCCCCCCCCCC(=O)C(C)N (stereo unspecified)
Response given: 12.7 µM

Challenge: Respond only with GI50 recorded for C1=C(c2ccccc2)C(c2ccc(OCCN3CCCCC3)cc2)Oc2ccccc21 (stereo unspecified)
Response given: 1.59 µM

Challenge: Respond only with GI50 recorded for "COc1cc2cc(Oc3ccc(NC(=O)Nc4ccc(Cl)c(C(F)(F)F)c4)cc3)c(C)nc2cc1OC"
Response given: 0.773 µM

Challenge: Respond only with GI50 recorded for "COc1ccc2c(c1)cn1c3ccc(O)cc3[nH]c(=O)c21"
Response given: 0.0442 µM

Challenge: Respond only with GI50 recorded for "COc1cc(-c2cc(/C=C3\C(=O)Nc4ccccc43)[nH]n2)cc(OC)c1OC"
Response given: 1.99 µM

Challenge: Respond only with GI50 recorded for "CC(=O)/C=C/C1=C(c2cccs2)c2ccccc2CC1"
Response given: 25.1 µM

Challenge: Respond only with GI50 recorded for COc1ccc(CC(NC(=O)[C@H](C)NC(=O)CN2CCOCC2)C(=O)N[C@@H](Cc2ccccc2)C(=O)[C@@]2(C)CO2)cc1 (stereo partly specified)
Response given: 0.278 µM

###

Can you tell me TGI for the items I'm about to list?
tested on: HOP-62 NSCLC; assay: NCI tumour cell line growth inhibition, 48 h
Where a SMILES comes first, the peptide text is derived from it.

Challenge: Respond only with TGI recorded for CSc1nc2c(c(O)c(C)c(=O)n2C2OCC(OC(C)=O)C(OC(C)=O)C2OC(C)=O)c(=O)n1C (centres undefined)
Response given: > 100 µM

Challenge: Respond only with TGI recorded for "CC1(C)CC(=O)C(=[N+]=[N-])C(=O)C1"
Response given: > 100 µM

Challenge: Respond only with TGI recorded for "N[C@@H]1CCCC[C@@H]1N.O=C([O-])CN(CP(=O)([O-])[O-])CP(=O)([O-])[O-].[Pt+2]"
Response given: > 100 µM

Challenge: Respond only with TGI recorded for CSCCC(NC(=O)OCc1ccccc1)P(=O)(O)c1ccccc1 (centres undefined)
Response given: > 100 µM

Challenge: Respond only with TGI recorded for CCC(C)C(NC(=O)C1CCCN1C(=O)C(CC(C)C)NC(=O)C(CC(C)C)NC(=O)C(N)CC(C)C)C(=O)NC(C(=O)NCC(=O)NC(CC(N)=O)C(=O)NC(CC(C)C)C(=O)NC(CC(C)C)C(=O)NC(CC(C)C)C(N)=O)C(C)C (centres undefined) (H-LLLPIVGNLLL-NH2; configuration not given here)
Response given: > 50 µM

Challenge: Respond only with TGI recorded for "CCCCCCCCCCCC(=O)c1c(O)cccc1O"
Response given: 31.5 µM

Challenge: Respond only with TGI recorded for CN(C)CC1(Cc2ccccc2)CCC(Cc2ccccc2)C1=O (centres undefined)
Response given: 33 µM

Challenge: Respond only with TGI recorded for COC(=O)C1(C2CC/C(C)=C/CC/C(C)=C/CC[C@@]3(C)O[C@@H]3C2)CC1 (some centres undefined)
Response given: 65.8 µM

Challenge: Respond only with TGI recorded for CC1C=C[C@H](Sc2ccccc2)CC[C@@]1(C)O (some centres undefined)
Response given: > 100 µM
